measurement_description: Human hepatocyte stability, in vitro h-Hept CLpredict
Type: in vitro ADME
assay_setup: cryopreserved hepatocytes, predicted hepatic clearance, cells without asterisk, read-out: hHep Cl
Method: The compounds disclosed herein were tested in vitro on human hepatocyte for in vitro h-Hept CLpredict according to the following procedures. • 1. […] Cells were counted using acridine orange and propidium iodide (AO/PI) staining, and the viable cell density was determined. […] All calculations were carried out using Microsoft Excel. Peak area ratios (PAR) were determined from extracted ion chromatograms. […] The in vitro half-life (in vitro t1/2) was determined from the slope value: […]
metric_name: CLhep predicted at 1 µM

Some solved entries appear below for comparison.
molecule	CLhep predicted at 1 µM
Cc1n[nH]c2c1N=C(c1c(F)cccc1F)Nc1cnc(N3CC(F)(F)C3)cc1-2	6.3 to 14.7 mL/min/kg
Cc1n[nH]c2c1N=C(c1c(F)cccc1F)Nc1cnc(-c3ccn(C(F)F)n3)cc1-2	< 6.3 mL/min/kg
Cc1n[nH]c2c1N=C(c1c(F)cccc1F)Nc1ccc(N3C[C@H](C)O[C@@H](C)C3)cc1-2	6.3 to 14.7 mL/min/kg
Cc1n[nH]c2c1N=C(c1c(F)cccc1F)Nc1ccc(N3CCN(CCF)CC3)cc1-2	< 6.3 mL/min/kg
Cc1n[nH]c2c1N=C(c1c(F)cccc1F)Nc1ccc(-c3cnn(C(F)F)c3)cc1-2	6.3 to 14.7 mL/min/kg
Cc1n[nH]c2c1N=C(c1c(F)cccc1F)Nc1c-2cc(N2CCN(CC(C)F)CC2)nc1C (racemic)	< 6.3 mL/min/kg
Cc1n[nH]c2c1N=C(c1c(F)cccc1F)Nc1cnc(N3CCO[C@@H](C(F)(F)F)C3)cc1-2	6.3 to 14.7 mL/min/kg

Consider the record given below.
Ask | Input `Cc1ccc(-c2ccc3c(c2)-c2[nH]nc(C)c2N=C(c2c(F)cccc2F)N3)cn1` , output reported CLhep predicted at 1 µM.
Reply | 6.3 to 14.7 mL/min/kg
